Target: T1, Suc-AAPF-pNA
T1 chain: AAPF
Settings: scale: relative to the substrate with the highest activity
measured.endpoint: relative activity (initial increase in OD405)
// no unit string in output, number only

Solved entries (count: 4):
protein="Subtilisin 309 variant from Bacillus clausii (protein) AQSVPWGIERVQAPAAHNRGLTGSGVKVAVLDTGISTHPDLRIRGGASFVPGEPSTQDGNGHGTHVAGTIAALDNSIGVLGVAPSEALYAVKVLGASGSGSVSSIAQGLEWAGNNGMHVANLSLGSPSPSATLEQAVNSATSRGVLVVAASGNSGAGSISYPARYANAMAVGATDQNNNRASFSQYGAGLDIVAPGVNILSTWPGSTYASLNGTSMATPHVAGAAALVKQKNPSWSNVQIRNHLKNTATSLGDTWEYGSGLVNAEAATR" test_value=1
protein="Subtilisin Carlsberg from Bacillus licheniformis (protein) AQTVPYGIPLIKADKVQAQGFKGANVKVAVLDTGIQASHPDLNVVGGASFVAGEAYNTDGNGHGTHVAGTVAALDNTTGVLGVAPSVSLYAVKVLNSSGSGSYSGIVSGIEWATTNGMDVINMSLGGASGSTAMKQAVDNAYARGVVVVAAAGNSGSSGNTNTIGYPAKYDSVIAVGAVDSNSNRASFSSVGAELEVMAPGAGVYSTYPTNTYATLNGTSMASPHVAGAAALILSKHPNLSASQVRNRLSSTATYLGSSFYYGKGLINVEAAAQ" test_value=1
protein="Trypsin from Fusarium oxysporum (protein) IVGGTSASAGDFPFIVSISRNGGPWCGGSLLNANTVLTAAHCVSGYAQSGFQIRAGSLSRTSGGITSSLSSVRVHPSYSGNNNDLAILKLSTSIPSGGNIGYARLAASGSDPVAGSSATVAGWGATSEGGSSTPVNLLKVTVPIVSRATCRAQYGTSAITNQMFCAGVSSGGKDSCQGDSGGPIVDSSNTLIGAVSWGNGCARPNYSGVYASVGALRSFIDTYA" test_value=0.0001
protein="Glutamyl endopeptidase blaSE from Bacillus licheniformis (protein) SVIGSDDRTRVTNTTAYPYRAIVHISSSIGSCTGWMIGPKTVATAGHCIYDTSSGSFAGTATVSPGRNGTSYPYGSVKSTRYFIPSGWRSGNTNYDYGAIELSEPIGNTVGYFGYSYTTSSLVGTTVTISGYPGDKTAGTQWQHSGPIAISETYKLQYAMDTYGGQSGSPVFEQSSSRTNCSGPCSLAVHTNGVYGGSSYNRGTRITKEVFDNLTNWKNSAQ" test_value=0.0032

Shifting focus to the protein that follows.
// query Item Glutamyl endopeptidase II sprE from Streptomyces griseus (protein) VLGGGAIYGGGSRCSAAFNVTKGGARYFVTAGHCTNISANWSASSGGSVVGVREGTSFPTNDYGIVRYTDGSSPAGTVDLYNGSTQDISSAANAVVGQAIKKSGSTTKVTSGTVTAVNVTVNYGDGPVYNMVRTTACSAGGDSGGAHFAGSVALGIHSGSSGCSGTAGSAIHQPVTEALSAYGVTVY : provide relative activity (initial increase in OD405)
// result 0

Just for reference, patent US20230240966 is where these values come from.
